FYI, the data here is from ChEMBL document CHEMBL1148313.

# System: B2 bradykinin receptor (Homo sapiens, UniProt P30411)
# Measurement Protocol: Inhibition of specific binding of [3H]BK at 1 nM to human bradykinin receptor B2 expressed in CHO cells by 50%.
Quantity Kind: IC50 (nM)

Examples with answers:
> print(dat)
                           molecular.string  unit  recorded.result
1  Cc1cc(N(C)C)c2cccc(OCc3c(Cl)ccc(N(C)C(=O)CNC(=O)/C=C/c4ccc(C(=O)N(C)C)nc4)c3Cl)c2n1.Cl.Cl.Cl.Cl    nM                4
2  Cc1cc(N2CCCCC2)c2cccc(OCc3c(Cl)ccc(N(C)C(=O)CNC(=O)/C=C/c4ccc(C(=O)N(C)C)cc4)c3Cl)c2n1.Cl.Cl.Cl.Cl    nM             0.76
3  Cc1cc(N2CCCCC2)c2cccc(OCc3c(Cl)ccc(N(C)C(=O)CNC(=O)/C=C/c4ccc(NC(=O)c5ccncc5)cc4)c3Cl)c2n1.Cl    nM              1.6

A: CNC(=O)c1ccc(/C=C/C(=O)NCC(=O)N(C)c2ccc(Cl)c(COc3cccc4c(N5CCCC5)cc(C)nc34)c2Cl)cc1
B: Cc1cc(N2CCOCC2)c2cccc(OCc3c(Cl)ccc(N(C)C(=O)CNC(=O)/C=C/c4ccc(C(=O)N(C)C)cc4)c3Cl)c2n1
C: CNC(=O)c1ccc(/C=C/C(=O)NCC(=O)N(C)c2ccc(Cl)c(COc3cccc4c(N(C)C)cc(C)nc34)c2Cl)cc1OC.Cl.Cl.Cl.Cl
Input line: Given 3 molecules, produce a descending ranking by IC50. Answer with the labels in sequence, matching the requested order.
Output line: A, C, B

---

# System: B2 bradykinin receptor (Cavia porcellus, UniProt O70526)
# Sequence (O70526 whole entry): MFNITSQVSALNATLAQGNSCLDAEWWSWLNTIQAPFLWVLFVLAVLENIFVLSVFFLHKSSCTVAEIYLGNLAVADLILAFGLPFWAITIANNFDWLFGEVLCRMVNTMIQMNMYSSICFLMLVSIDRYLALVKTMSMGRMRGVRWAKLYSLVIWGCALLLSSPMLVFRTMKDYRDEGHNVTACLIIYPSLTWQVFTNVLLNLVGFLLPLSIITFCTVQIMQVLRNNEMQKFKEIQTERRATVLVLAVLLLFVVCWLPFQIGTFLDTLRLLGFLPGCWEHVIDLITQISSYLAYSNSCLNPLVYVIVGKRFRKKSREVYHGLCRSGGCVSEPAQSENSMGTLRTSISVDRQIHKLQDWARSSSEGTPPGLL
# Measurement Protocol: Inhibition of specific binding of [3H]BK at 0.06 nM to bradykinin receptor B2 in guinea pig ileum membrane preparations by 50%.
pIC50: −log10 of the molar value.
Quantity Kind: pIC50

Examples with answers:
> print(dat)
                           molecular.string                                    system  quantity.kind  recorded.result
1  CNC(=O)c1ccc(/C=C/C(=O)NCC(=O)N(C)c2ccc(Cl)c(COc3cccc4c(N5CCCC5)cc(C)nc34)c2Cl)cc1  B2 bradykinin receptor (Cavia porcellus, UniProt O70526)          pIC50             5.64
2  CNC(=O)c1ccc(/C=C/C(=O)NCC(=O)N(C)c2ccc(Cl)c(COc3cccc4c(N5CCOCC5)cc(C)nc34)c2Cl)cn1.Cl  B2 bradykinin receptor (Cavia porcellus, UniProt O70526)          pIC50             7.07
3  CNC(=O)c1ccc(/C=C/C(=O)NCC(=O)N(C)c2ccc(Cl)c(COc3cccc4c(N(C)C)cc(C)nc34)c2Cl)cn1.Cl  B2 bradykinin receptor (Cavia porcellus, UniProt O70526)          pIC50             8.92
4  Cc1cc(N2CCCCC2)c2cccc(OCc3c(Cl)ccc(N(C)C(=O)CNC(=O)/C=C/c4ccc(C(=O)NCc5ccccn5)cc4)c3Cl)c2n1.Cl  B2 bradykinin receptor (Cavia porcellus, UniProt O70526)          pIC50             7.40
5  CC(=O)Nc1ccc(/C=C/C(=O)NCC(=O)N(C)c2ccc(Cl)c(COc3cccc4c(N(C)C)cc(C)nc34)c2Cl)cn1.Cl  B2 bradykinin receptor (Cavia porcellus, UniProt O70526)          pIC50             8.20
6  Cc1cc(N2CCCCC2)c2cccc(OCc3c(Cl)ccc(N(C)C(=O)CNC(=O)/C=C/c4ccc(N5CCCC5=O)cc4)c3Cl)c2n1.Cl.Cl.Cl.Cl  B2 bradykinin receptor (Cavia porcellus, UniProt O70526)          pIC50             7.55
7  CNC(=O)c1ccc(/C=C/C(=O)NCC(=O)N(C)c2ccc(Cl)c(COc3cccc4c(NCCOC)cc(C)nc34)c2Cl)cc1  B2 bradykinin receptor (Cavia porcellus, UniProt O70526)          pIC50             7.31
8  Cc1cc(N2CCOCC2)c2cccc(OCc3c(Cl)ccc(N(C)C(=O)CNC(=O)/C=C/c4ccc(NC(=O)c5ccncc5)cc4)c3Cl)c2n1.Cl  B2 bradykinin receptor (Cavia porcellus, UniProt O70526)          pIC50             7.54

a: Cc1cc(N2CCOCC2)c2cccc(OCc3c(Cl)ccc(N(C)C(=O)CNC(=O)/C=C/c4ccc(C(=O)N(C)C)cc4)c3Cl)c2n1
b: Cc1cc(N(C)C)c2cccc(OCc3c(Cl)ccc(N(C)C(=O)CNC(=O)/C=C/c4ccc(C(=O)N(C)C)nc4)c3Cl)c2n1.Cl.Cl.Cl.Cl
c: CNC(=O)c1ccc(/C=C/C(=O)NCC(=O)N(C)c2ccc(Cl)c(COc3cccc4c(N5CCN(C)CC5)cc(C)nc34)c2Cl)cc1
d: Cc1cc(N2CCCCC2)c2cccc(OCc3c(Cl)ccc(N(C)C(=O)CNC(=O)/C=C/c4ccc(C(=O)Nc5ccncc5)cc4)c3Cl)c2n1.Cl
e: CNC(=O)c1ccc(/C=C/C(=O)NCC(=O)N(C)c2ccc(Cl)c(COc3cccc4c(N(CCOC)CCOC)cc(C)nc34)c2Cl)cc1
Input line: Given 5 compounds, produce a descending ranking by pIC50. Answer with the labels in sequence, matching the requested order.
Output line: b, a, d, e, c

---

# System: B2 bradykinin receptor (Cavia porcellus)
# Measurement Protocol: Inhibition of specific binding of [3H]BK at 0.06 nM to bradykinin receptor B2 in guinea pig ileum membrane preparations by 50%.
Quantity Kind: IC50 (nM)

P: CNC(=O)c1ccc(/C=C/C(=O)NCC(=O)N(C)c2ccc(Cl)c(COc3cccc4c(N5CCCCC5)cc(C)nc34)c2Cl)cc1.Cl.Cl.Cl.Cl
Q: Cc1cc(N2CCOCC2)c2cccc(OCc3c(Cl)ccc(N(C)C(=O)CNC(=O)/C=C/c4ccc(C(=O)Nc5ccncc5)cc4)c3Cl)c2n1.Cl
R: CNC(=O)c1ccc(/C=C/C(=O)NCC(=O)N(C)c2ccc(Cl)c(COc3cccc4c(N(C)C)cc(C)nc34)c2Cl)cc1OC.Cl.Cl.Cl.Cl
Input line: Sort the entries above by IC50, smallest first. Answer with the labels in sequence, matching the requested order.
Output line: R, Q, P
(R: 5.6 nM, Q: 37 nM, P: 68 nM)

---

# Tested on: Cavia porcellus
# Measurement Protocol: In vivo functional antagonistic activity in inhibiting BK (5 ug/kg, i.v.) induced bronchoconstriction in guinea pigs by 10 ug/kg iv administration
Quantity Kind: Inhibition (%)
// units = %; emit number, no label

> print(dat)
                           molecular.string           system  unit  recorded.result
1  CNC(=O)c1ccc(/C=C/C(=O)NCC(=O)N(C)c2ccc(Cl)c(COc3cccc4c(N(C)C)cc(C)nc34)c2Cl)cc1OC.Cl.Cl.Cl.Cl  Cavia porcellus     %             88.7

Input line: Read off the recorded Inhibition for Cc1cc(N(C)C)c2cccc(OCc3c(Cl)ccc(N(C)C(=O)CNC(=O)/C=C/c4ccc(C(=O)N(C)C)cc4)c3Cl)c2n1.Cl.Cl
Output line: 73.4

Input line: Read off the recorded Inhibition for Cc1cc(N(C)C)c2cccc(OCc3c(Cl)ccc(N(C)C(=O)CNC(=O)/C=C/c4ccc(NC(=O)c5ccncc5)cc4)c3Cl)c2n1.Cl
Output line: 59

Input line: Read off the recorded Inhibition for CNC(=O)c1ccc(/C=C/C(=O)NCC(=O)N(C)c2ccc(Cl)c(COc3cccc4c(N(C)C)cc(C)nc34)c2Cl)cn1.Cl
Output line: 85.5

---

# System: B2 bradykinin receptor (Homo sapiens, UniProt P30411)
# Sequence (P30411 whole entry): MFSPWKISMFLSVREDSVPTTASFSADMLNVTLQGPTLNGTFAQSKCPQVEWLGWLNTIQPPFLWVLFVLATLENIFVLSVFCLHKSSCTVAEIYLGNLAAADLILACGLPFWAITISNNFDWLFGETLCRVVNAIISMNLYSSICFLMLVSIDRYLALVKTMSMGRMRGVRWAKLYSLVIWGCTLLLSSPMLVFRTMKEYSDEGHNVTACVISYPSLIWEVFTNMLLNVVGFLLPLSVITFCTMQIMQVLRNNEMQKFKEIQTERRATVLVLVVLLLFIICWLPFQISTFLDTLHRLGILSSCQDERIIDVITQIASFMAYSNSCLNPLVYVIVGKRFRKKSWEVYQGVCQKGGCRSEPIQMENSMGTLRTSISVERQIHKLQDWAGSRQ
# Measurement Protocol: Inhibition of specific binding of [3H]BK at 1 nM to human bradykinin receptor B2 expressed in CHO cells by 50%.
pIC50: −log10 of the molar value.
Quantity Kind: pIC50

Examples with answers:
> print(dat)
                           molecular.string  quantity.kind  recorded.result
1  CC(=O)Nc1ccc(/C=C/C(=O)NCC(=O)N(C)c2ccc(Cl)c(COc3cccc4c(N(C)C)cc(C)nc34)c2Cl)cc1C.Cl.Cl.Cl.Cl          pIC50             8.32
2  Cc1cc(N2CCCCC2)c2cccc(OCc3c(Cl)ccc(N(C)C(=O)CNC(=O)/C=C/c4ccc(N5CCCC5=O)cc4)c3Cl)c2n1.Cl.Cl.Cl.Cl          pIC50             8.92

a: CNC(=O)c1ccc(/C=C/C(=O)NCC(=O)N(C)c2ccc(Cl)c(COc3cccc4c(NCCN(C)C)cc(C)nc34)c2Cl)cc1
b: CNC(=O)c1ccc(/C=C/C(=O)NCC(=O)N(C)c2ccc(Cl)c(COc3cccc4c(N5CCN(C)CC5)cc(C)nc34)c2Cl)cc1
c: CNC(=O)c1ccc(/C=C/C(=O)NCC(=O)N(C)c2ccc(Cl)c(COc3cccc4c(NCCOC)cc(C)nc34)c2Cl)cc1
Input line: rank_up(items): orders items by reported pIC50 in ascending numerical order. Answer with the labels in sequence, matching the requested order.
Output line: a, b, c

1: CNC(=O)c1ccc(/C=C/C(=O)NCC(=O)N(C)c2ccc(Cl)c(COc3cccc4c(N(CCOC)CCOC)cc(C)nc34)c2Cl)cc1
2: Cc1cc(N2CCOCC2)c2cccc(OCc3c(Cl)ccc(N(C)C(=O)CNC(=O)/C=C/c4ccc(NC(=O)c5ccncc5)cc4)c3Cl)c2n1.Cl
3: Cc1cc(N(C)C)c2cccc(OCc3c(Cl)ccc(N(C)C(=O)CNC(=O)/C=C/c4ccc(C(=O)NCc5ccccn5)cc4)c3Cl)c2n1.Cl
4: Cc1cc(N(C)C)c2cccc(OCc3c(Cl)ccc(N(C)C(=O)CNC(=O)/C=C/c4ccc(NC(=O)c5ccncc5)cc4)c3Cl)c2n1.Cl
Input line: Given 4 compounds, produce a descending ranking by pIC50. Answer with the labels in sequence, matching the requested order.
Output line: 4, 2, 3, 1

P: Cc1cc(N2CCOCC2)c2cccc(OCc3c(Cl)ccc(N(C)C(=O)CNC(=O)/C=C/c4ccc(C(=O)Nc5ccncc5)cc4)c3Cl)c2n1.Cl
Q: CNC(=O)c1ccc(/C=C/C(=O)NCC(=O)N(C)c2ccc(Cl)c(COc3cccc4c(N5CCCCC5)cc(C)nc34)c2Cl)cc1.Cl.Cl.Cl.Cl
R: Cc1cc(N2CCCCC2)c2cccc(OCc3c(Cl)ccc(N(C)C(=O)CNC(=O)/C=C/c4ccc(C(=O)NCc5ccccn5)cc4)c3Cl)c2n1.Cl
S: CC(=O)Nc1ccc(/C=C/C(=O)NCC(=O)N(C)c2ccc(Cl)c(COc3cccc4c(N(C)C)cc(C)nc34)c2Cl)cn1.Cl
Input line: rank_up(items): orders items by reported pIC50 in ascending numerical order. Answer with the labels in sequence, matching the requested order.
Output line: S, R, Q, P
(S: 8.38, R: 8.60, Q: 8.96, P: 9.19)
